B1: Endoglucanase C, P0C2S3 (parent)
chain: MVSFKAGINLGGWISQYQVFSKEHFDTFITEKDIETIAEAGFDHVRLPFDYPIIESDDNVGEYKEDGLSYIDRCLEWCKKYNLGLVLDMHHAPGYRFQDFKTSTLFEDPNQQKRFVDIWRFLAKRYINEREHIAFELLNEVVEPDSTRWNKLMLEYIKAIREIDSTMWLYIGGNNYNSPDELKNLADIDDDYIVYNFHFYNPFFFTHQKAHWSESAMAYNRTVKYPGQYEGIEEFVKNNPKYSFMMELNNLKLNKELLRKDLKPAIEFREKKKCKLYCGEFGVIAIADLESRIKWHEDYISLLEEYDIGGAVWNYKKMDFEIYNEDRKPVSQELVNILARRKT

Variants of: B1
MEASUREMENT_CONDITIONS: Acetivibrio thermocellus; pH 7.2; Thermal; DSC; Tris 20 mM; reversible: No; structure 1CEC; whole UniProt chain shown
Would you kindly list Tm for each of these variants?
Number in °C, nothing else.

Which Tm reading was recorded for the variant I293A ?
67.6

May I ask what Tm has been recorded for A6C R340C ?
73.4

Quick one: Tm of N220D T222A ?
68.3

Could you tell me which Tm is on file for N9D ?
63.9

Can you look up the measured Tm of E333G for me?
69.4
